experiment: growth inhibitors of wild-type E. coli, primary screen, strain BW25113, expanded library, OD600 (AID 710); conditions: OD600 absorbance, at 100 µM, stronger effect = higher value;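 further: growth measured after 20 h incubation at 37 °C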
The whole screen tested about 98,000 compounds, of which about 150 (0.15%) were called active. The entries come from a sample that favours actives as a whole.
reportedMetric: growth inhibition (%)

>>> df
                                   molecule     reportedmetric  measuredvalue
0    CCOc1ccc(NC(=O)c2ccccc2NS(C)(=O)=O)cc1  growth inhibition             -4
1             Cc1nn(C)c(Oc2ccc(Cl)cc2)c1C=O  growth inhibition             -1
2            COc1ccc(CN2CN(C(C)C)CSC2=S)cc1  growth inhibition             38
3  CSc1ccc(CCNC(=O)C2CCN(c3nnc(-n4cccc4)s3)CC2)cc1  growth inhibition             -3
4  CC(CN1CCOCC1)c1ccccc1 (configuration not stated)  growth inhibition              4
5  CCSc1nc(-c2ccc(OC)cc2)cc(-c2ccc(OC)cc2)c1C#N  growth inhibition            -14
6                      OCCNc1nc2ccccc2[nH]1  growth inhibition              2

###

experiment: growth inhibitors of wild-type E. coli, primary screen, strain BW25113, expanded library, OD600 (AID 710); settings: OD600 absorbance, at 100 µM, stronger effect = higher value;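 further: growth measured after 20 h incubation at 37 °C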
The whole screen tested about 98,000 compounds, of which about 150 (0.15%) were called active. This excerpt belongs to a sample that is enriched for actives.
reportedMetric: growth inhibition (%)

>>> df
                                     smiles  scaleunit  measuredvalue
0  COC(=O)CNS(=O)(=O)c1ccc(Cc2ccc(S(=O)(=O)NCC(=O)OC)cc2)cc1          %             50
1  COC(=O)COc1ccc(S(=O)(=O)Nc2ccc(NC(C)=O)cc2)cc1          %              0
2  COc1ccc(-c2nn(C)c(=O)c3ccccc23)cc1NC(=O)COc1ccccc1          %              2
3            COC(=O)CNS(=O)(=O)c1ccc(OC)cc1          %              1
4  CC(C)C(=O)Nc1cccc(NC(=S)NC(=O)C(c2ccccc2)c2ccccc2)c1          %            -13
